# measured on: human Kv3.1 channels (hKv3.1) (Homo sapiens)
# Construct: expressed in transfected cells
# Sequence (P48547 whole entry): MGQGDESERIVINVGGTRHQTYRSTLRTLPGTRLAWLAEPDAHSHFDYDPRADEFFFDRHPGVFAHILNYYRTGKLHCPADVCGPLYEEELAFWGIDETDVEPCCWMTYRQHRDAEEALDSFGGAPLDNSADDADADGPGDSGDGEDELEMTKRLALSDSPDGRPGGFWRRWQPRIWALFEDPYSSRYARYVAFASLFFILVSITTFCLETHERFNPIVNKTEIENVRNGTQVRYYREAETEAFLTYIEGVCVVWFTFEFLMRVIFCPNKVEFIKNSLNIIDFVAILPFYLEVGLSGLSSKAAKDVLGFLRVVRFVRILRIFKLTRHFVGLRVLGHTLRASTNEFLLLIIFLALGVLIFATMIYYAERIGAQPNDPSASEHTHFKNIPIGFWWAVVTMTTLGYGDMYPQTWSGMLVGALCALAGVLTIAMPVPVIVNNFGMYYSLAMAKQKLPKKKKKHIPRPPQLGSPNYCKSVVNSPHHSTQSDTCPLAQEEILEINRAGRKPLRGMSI
# assay text: Kv3.1 channel modulation, IonWorks Quattro planar array electrophysiology
# Assay type: cell-based
# cond: HEK-293 cells expressing human Kv3.1; normalised to maximum effect of 50 microM reference compound
Below, each entry is listed alongside its reported Kv3.1 max R %.
Provide the reading as a plain figure in %.

Exam item: Form: Entry = CC(C)c1cc(Oc2ccc(N3C(=O)NC(C)(C)C3=O)c(N)n2)ccc1C#N | System = human Kv3.1 channels (hKv3.1) (Homo sapiens) | Kv3.1 max R % = ____
Marked response: 175

Exam item: For the record CC[C@H]1NC(=O)N(c2ccc(Oc3ccc(C#N)c(C(C)C)c3)nc2N)C1=O , what value of Kv3.1 max R % is listed for human Kv3.1 channels (hKv3.1) (Homo sapiens)?
Marked response: 161

Exam item: Observed Kv3.1 max R % on human Kv3.1 channels (hKv3.1) (Homo sapiens) for COc1cccc(Oc2ccc(N3C(=O)NC(C)(C)C3=O)c(N)n2)c1 , please.
Marked response: 89

Exam item: Requested read-out Kv3.1 max R %, target or system human Kv3.1 channels (hKv3.1) (Homo sapiens), entry CC[C@H]1NC(=O)N(c2ccc(Oc3ccc(C)c4c3C3(CC3)CO4)nc2N)C1=O
Marked response: 161

Exam item: // lookup Kv3.1 max R % | system=human Kv3.1 channels (hKv3.1) (Homo sapiens) | key= CC[C@H]1NC(=O)N(c2ccc(Oc3ccc(C)c(OC(F)(F)F)c3)nc2N)C1=O
Marked response: 137

Others:
Exam item: Can you look up Kv3.1 max R % on human Kv3.1 channels (hKv3.1) (Homo sapiens) for CC1(C)NC(=O)N(c2ccc(Oc3cccc4c3C(C)(C)CO4)nc2N)C1=O ?
Marked response: 152

Exam item: Hi! What's the reported Kv3.1 max R % for Cc1ccc(Oc2ccc(N3C(=O)NC(C)(C)C3=O)c(N)n2)c2c1OCC2(C)C on human Kv3.1 channels (hKv3.1) (Homo sapiens)?
Marked response: 165

Exam item: Checklist item: Kv3.1 max R % tested on human Kv3.1 channels (hKv3.1) (Homo sapiens), entry CC1(C)NC(=O)N(c2ccc(Oc3cccc4c3C3(CC3)CO4)nc2N)C1=O , value?
Marked response: 159

Exam item: Find the measured Kv3.1 max R %: item CC[C@H]1NC(=O)N(c2ccc(Oc3cccc4c3C3(CC3)CO4)nc2N)C1=O , target or system human Kv3.1 channels (hKv3.1) (Homo sapiens).
Marked response: 159

Exam item: What is its Kv3.1 max R % for human Kv3.1 channels (hKv3.1) (Homo sapiens)? Entry: Cc1ccc(Oc2ccc(N3C(=O)NC(C)(C)C3=O)c(N)n2)c2c1OCC21CC1
Marked response: 183

Exam item: Hi! What's the reported Kv3.1 max R % for CC1(C)NC(=O)N(c2ccc(Oc3ccc(C#N)c(OC(F)(F)F)c3)nc2N)C1=O on human Kv3.1 channels (hKv3.1) (Homo sapiens)?
Marked response: 113

Exam item: Recall the recorded Kv3.1 max R % for Cc1ccc(Oc2ccc(N3C(=O)NC(C)(C)C3=O)c(N)n2)cc1OC(F)(F)F with human Kv3.1 channels (hKv3.1) (Homo sapiens) and state it.
Marked response: 135

Exam item: I'm curious: which Kv3.1 max R % was measured for CC1(C)NC(=O)N(c2ccc(Oc3cccc(OC(F)(F)F)c3)nc2N)C1=O tested on human Kv3.1 channels (hKv3.1) (Homo sapiens)?
Marked response: 118

Exam item: Can you look up Kv3.1 max R % on human Kv3.1 channels (hKv3.1) (Homo sapiens) for CC[C@H]1NC(=O)N(c2ccc(Oc3ccc(C#N)c(OC(F)(F)F)c3)nc2N)C1=O ?
Marked response: 161

Provenance of the data: patent US20260199309A1
